Values compiled from patent US11168086B2.

# System: HBV
# PROTOCOL_DETAILS: HBV inhibition assay: anti-HBV activity in vitro in HepG2.2.15 cells (extracellular HBV DNA by qPCR)
# Format: cell-based
# REPORTED_CONDITIONS: Hepatitis B virus, 120 h, five days after compound treatment, extracellular HBV DNA in culture supernatant by qPCR, concentration at which HBV replication is inhibited by 50%
# Description: Example 441: HBV Inhibition Assays Cell Line and Culture Conditions: HepG2.2.15 is a stably-transfected cell line containing the HBV genome. […] For quantitative PCR detection of extracellular HBV DNA, culture supernatant was processed by Proteinase K digestion. After heat inactivation of the enzyme, the samples were subjected to HBV DNA quantification by qPCR. […]
READOUT_KIND: pEC50
Keep it numeric: pEC50 is minus log10 of the concentration in mol/L.

Recorded results for 3 compounds are shown here.
>>> df
                                   compound  readout_kind  measured_result
0  CC1Cn2ncc(C3CCCC3)c2CN1C(=O)Nc1ccnc(Cl)c1 (stereo not shown) [Example 96]         pEC50             7.14
1  Cc1nc(C2CC(=O)N(c3cnn4c3CN(C(=O)Nc3cc(F)c(F)c(F)c3)[C@@H](C)C4)C2)no1 (stereo partly shown) [Example 285]         pEC50             8.15
2  CC1CC(=O)N(c2cnn3c2CN(C(=O)Nc2ccc(F)c(Cl)c2)[C@@H](C)C3)C1 (stereo partly shown) [Example 254]         pEC50             7.41

What pEC50 value was documented for this compound, C[C@H]1Cn2ncc(N3CC(c4cncnc4)CC3=O)c2CN1C(=O)Nc1cc(F)c(F)c(F)c1 (stereo partly shown) [Example 413] ?
7.12

Reported pEC50, compound C[C@H]1Cn2ncc(N3CC(C)(C#N)CC3=O)c2CN1C(=O)Nc1cc(F)c(F)c(C(F)F)c1 (stereo partly shown) [Example 361] : ____
7.96

pEC50 lookup needed for C[C@H]1Cn2ncc(N3CC(c4cocn4)CC3=O)c2CN1C(=O)Nc1cc(F)c(F)c(F)c1 (stereo partly shown) [Example 352] , thanks.
7.85

Which pEC50 reading was recorded for the compound C[C@H]1Cn2ncc(-c3ccc(F)cc3)c2CN1C(=O)Nc1ccc(F)c(Cl)c1 [Example 102] ?
7.85
